Below, each entry is listed alongside its reported pEC50.
biological target: IRE-1α (Homo sapiens (Human), UniProt O75460); assay: Cellular EC50: endogenous XBP-1 splicing in myeloma cells (MM.1s, DTT stress, RT-PCR); conditions: average cellular EC50, XBP-1 splicing in myeloma cells
Sequence (O75460 19-977): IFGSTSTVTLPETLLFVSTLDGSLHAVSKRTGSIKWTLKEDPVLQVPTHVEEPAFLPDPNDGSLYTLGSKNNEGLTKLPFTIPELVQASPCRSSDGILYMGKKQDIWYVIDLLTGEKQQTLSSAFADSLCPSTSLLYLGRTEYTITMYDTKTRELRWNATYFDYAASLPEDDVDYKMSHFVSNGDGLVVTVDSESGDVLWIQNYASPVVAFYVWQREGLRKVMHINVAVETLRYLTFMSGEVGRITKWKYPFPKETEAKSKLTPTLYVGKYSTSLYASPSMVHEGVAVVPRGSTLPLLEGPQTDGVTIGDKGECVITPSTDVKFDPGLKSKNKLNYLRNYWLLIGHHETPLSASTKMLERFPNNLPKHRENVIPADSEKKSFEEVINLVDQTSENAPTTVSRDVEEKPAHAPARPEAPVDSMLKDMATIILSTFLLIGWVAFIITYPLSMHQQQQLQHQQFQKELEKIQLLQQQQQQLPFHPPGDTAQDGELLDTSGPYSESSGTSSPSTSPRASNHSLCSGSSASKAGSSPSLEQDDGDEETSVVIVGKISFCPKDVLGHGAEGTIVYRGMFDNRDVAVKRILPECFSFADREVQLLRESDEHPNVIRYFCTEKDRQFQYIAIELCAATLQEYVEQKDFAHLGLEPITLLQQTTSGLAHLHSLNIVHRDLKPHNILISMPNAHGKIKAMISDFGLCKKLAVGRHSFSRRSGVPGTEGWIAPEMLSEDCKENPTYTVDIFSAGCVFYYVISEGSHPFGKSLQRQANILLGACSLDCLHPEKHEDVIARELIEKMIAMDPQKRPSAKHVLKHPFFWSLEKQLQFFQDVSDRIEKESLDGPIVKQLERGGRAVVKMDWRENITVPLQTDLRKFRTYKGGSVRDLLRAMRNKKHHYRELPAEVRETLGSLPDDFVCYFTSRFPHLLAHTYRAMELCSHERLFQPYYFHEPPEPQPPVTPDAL
pEC50: −log10 of the molar value.
value_kind: pEC50

1) CCNC(=O)Cc1c(C)oc2c(C=O)c(O)cc(OC)c2c1=O = > 5.00
2) Cc1oc2c(C=O)c(O)ccc2c(=O)c1CCC(=O)NCCN(C)C = < 5.00
3) COCc1c(CCC(=O)NCCN2CCOCC2)c(=O)oc2c(C=O)c(O)c(OC)cc12 = < 5.00
4) CN(C)CCNC(=O)CCc1nc2c(C=O)c(O)ccc2[nH]1 = < 5.00
5) COCc1c(C)c(=O)oc2c(C=O)c(O)ccc12 = > 5.00
6) COc1cc2c(C)c(CCC(=O)NCCO)c(=O)oc2c(C=O)c1O = < 5.00
7) CCNC(=O)c1cc2c(C=O)c(O)ccc2s1 = > 5.00
8) [2H]C(=O)c1c(O)ccc2c(C)c(-c3ccc(C(=O)NCCN4CCOCC4)cc3)c(=O)oc12 = > 5.00
9) CCOC(=O)CCc1c(C)c2cc(N(C)C(C)=O)c(O)c(C=O)c2oc1=O = < 5.00

###

biological target: IRE-1α (Homo sapiens (Human), UniProt O75460); assay: Cellular EC50: endogenous XBP-1 splicing in myeloma cells (MM.1s, DTT stress, RT-PCR); settings: average cellular EC50, XBP-1 splicing in myeloma cells
value_kind: EC50

1) Cc1c(-c2ccc(C(=O)NCCN3CCOCC3)cc2)c(=O)oc2c(C=O)c(O)c(Cl)cc12 [Example 151] = > 10 µM
2) COCCOc1cc(O)c(C=O)c2oc(=O)c(CCC(=O)N3CCN(C)CC3)c(C)c12 [Example 154] = < 10 µM
3) O=Cc1c(O)ccc2oc(CCC(=O)NCCN3CCOCC3)nc12 [Example 253] = < 10 µM
4) CCNC(=O)c1cc2c(C=O)c(O)ccc2o1 [Example 285] = < 10 µM
5) CCNC(=O)CCc1c(C)oc2c(C=O)c(O)c(OC)cc2c1=O [Example 213] = > 10 µM
6) Cc1nc2ccc(O)c(C=O)c2o1 [Example 256] = > 10 µM
7) COc1cc(O)c(C=O)c2oc(=O)c(CC(=O)NCCN(C)C)c(C)c12 [Example 180] = < 10 µM
8) COc1cc2c(C)c(-c3ccc(C(=O)N4CCOCC4)s3)c(=O)oc2c(C=O)c1O [Example 142] = < 10 µM
9) COCc1cc(=O)oc2c(C=O)c(O)cc(OC)c12 [Example 122] = < 10 µM
10) COCCNC(=O)CCc1c(C)c2c(OCCOC)cc(O)c(C=O)c2oc1=O [Example 152] = < 10 µM
11) COCCNC(=O)Cc1c(C)c2cc(OCCN3CCOCC3)c(O)c(C=O)c2oc1=O [Example 205] = 10 µM
12) CCNC(=O)c1cc2c(C=O)c(O)ccc2[nH]1 [Example 276] = > 10 µM
13) COCCNC(=O)CCc1c(C)c2cc(OC)c(O)c(C=O)c2oc1=O [Example 171] = < 10 µM
14) Cc1c(CC(=O)N2CCOCC2)c(=O)oc2c(C=O)c(O)c(OCCN3CCOCC3)cc12 [Example 206] = 10 µM
15) COc1cc(O)c(C=O)c2oc(C)c(CC(=O)N3CCOCC3)c(=O)c12 [Example 227] = < 10 µM
16) CCNC(=O)CCc1c(C)c2cc(OCCN3CCOCC3)c(O)c(C=O)c2oc1=O [Example 204] = > 10 µM
17) CN1CCN(C(=O)CCc2nc3c(C=O)c(O)ccc3o2)CC1 [Example 251] = > 10 µM
18) COc1cc2c(C)c(CC(=O)N3CCN(C)CC3)c(=O)oc2c(C=O)c1O [Example 168] = < 10 µM
19) CCc1cc2c(C)c(-c3ccc(C(=O)NCCN4CCOCC4)cc3)c(=O)oc2c(C=O)c1O [Example 117] = < 10 µM

###

target: IRE-1α (Homo sapiens (Human)); assay: Cellular EC50: endogenous XBP-1 splicing in myeloma cells (MM.1s, DTT stress, RT-PCR); conditions: average cellular EC50, XBP-1 splicing in myeloma cells
The molecules listed here are annotated with their EC50.
value_kind: EC50

1. CCNC(=O)CCc1nc2c(C=O)c(O)ccc2[nH]1 = > 10 µM
2. COCCNC(=O)Cc1c(C)c2cc(OC)c(O)c(C=O)c2oc1=O = < 10 µM
3. COc1cc(O)c(C=O)c2oc(=O)c(CC(=O)N3CCN(C)CC3)c(C)c12 = < 10 µM
4. CCOC(=O)c1cc2c(C=O)c(O)ccc2[nH]1 = > 10 µM
5. Cc1oc2c(C=O)c(O)ccc2c(=O)c1CC(=O)NCCN(C)C = > 10 µM
6. COCCOc1cc2c(C)c(CCC(=O)NCCN3CCOCC3)c(=O)oc2c(C=O)c1O = > 10 µM
7. COCCOc1cc(O)c(C=O)c2oc(=O)c(CCC(=O)NCCN(C)C)c(C)c12 = > 10 µM
8. COCCOc1cc2c(C)c(CCC(=O)NCCN(C)C)c(=O)oc2c(C=O)c1O = > 10 µM
9. COCc1cc(=O)oc2c(C=O)c(O)c(OC)cc12 = < 10 µM
10. COCCNC(=O)c1cc2c(C=O)c(O)ccc2o1 = > 10 µM
11. CCOC(=O)CCc1nc2c(C=O)c(O)ccc2o1 = > 10 µM
12. COc1cc2c(C)c(CCC(=O)N3CCN(C)CC3)c(=O)oc2c(C=O)c1O = < 10 µM
13. COc1cc2c(C(F)(F)F)cc(=O)oc2c(C=O)c1O = < 10 µM
14. COc1cc2c(C)c(-c3ccc(C(=O)N4CCN(C)CC4)s3)c(=O)oc2c(C=O)c1O = < 10 µM
15. Cc1nc2c(C=O)c(O)ccc2o1 = < 10 µM
16. CCNC(=O)Cc1c(C)c2cc(OC)c(O)c(C=O)c2oc1=O = < 10 µM
17. O=Cc1c(O)ccc2[nH]c(C(=O)NCCN3CCOCC3)cc12 = > 10 µM
18. O=Cc1c(O)ccc2oc(CCC(=O)O)nc12 = > 10 µM
19. CN1CCC(NC(=O)CCc2nc3c(C=O)c(O)ccc3[nH]2)CC1 = < 10 µM

###

Attribute: pEC50
target: IRE-1α (Homo sapiens (Human)); assay: Cellular EC50: endogenous XBP-1 splicing in myeloma cells (MM.1s, DTT stress, RT-PCR); details: average cellular EC50, XBP-1 splicing in myeloma cells
pEC50: −log10 of the molar value.
value_kind: pEC50

1. O=Cc1c(O)ccc2oc(CCC(=O)N3CCOCC3)nc12 = < 5.00
2. COCCOc1cc2c(C)c(CC(=O)N3CCN(C)CC3)c(=O)oc2c(C=O)c1O = > 5.00
3. COCCNC(=O)CCc1c(C)oc2c(C=O)c(O)ccc2c1=O = > 5.00
4. COc1cc2c3c(c(=O)oc2c(C=O)c1O)CCC3 = > 5.00
5. O=Cc1c(O)ccc2sc(CCC(=O)N3CCOCC3)cc12 = < 5.00
6. COCCNC(=O)c1cc2c(C=O)c(O)ccc2s1 = < 5.00
7. Cn1c(CCC(=O)N2CCOCC2)nc2ccc(O)c(C=O)c21 = < 5.00
8. Cn1c(CCC(=O)NCCN2CCOCC2)nc2c(C=O)c(O)ccc21 = < 5.00
9. COc1cc(O)c(C=O)c2oc(=O)c(CCC(=O)N3CCOCC3)c(C)c12 = > 5.00
10. COCOCCNC(=O)Cc1c(C)c2cc(OC)c(O)c(C=O)c2oc1=O = > 5.00
11. COCCOCCc1c(C)c2c(OC)cc(O)c(C=O)c2oc1=O = > 5.00
12. COc1cc2c(C)c(CCC(=O)N3CCOCC3)c(=O)oc2c(C=O)c1O = > 5.00
13. Cc1oc2c(C=O)c(O)ccc2c(=O)c1CC(=O)NCCN1CCOCC1 = < 5.00
14. COCCNC(=O)CCc1nc2c(C=O)c(O)ccc2n1C = < 5.00
15. O=Cc1c(O)ccc2nc(CCC(=O)NCCN3CCOCC3)[nH]c12 = < 5.00
16. COCCc1c(C)c2c(O)cc(O)c(C=O)c2oc1=O = > 5.00
17. Cc1oc2c(C=O)c(O)ccc2c(=O)c1CC(=O)N1CCN(C)CC1 = > 5.00
18. CN(C)CCNC(=O)c1cc2c(C=O)c(O)ccc2s1 = < 5.00
19. COCCNC(=O)CCc1cc2c(C=O)c(O)ccc2s1 = > 5.00
20. COCCOc1cc2c(C)c(CC(=O)NCCN3CCOCC3)c(=O)oc2c(C=O)c1O = > 5.00
21. Cn1c(CCC(=O)O)nc2c(C=O)c(O)ccc21 = < 5.00
22. Cn1c(CCC(=O)O)nc2ccc(O)c(C=O)c21 = < 5.00
